meta.source: paper PMC8957246

# Test system: Pectobacterium atrosepticum 1043
# experiment: Bactericidal activity, agar diffusion, P. atrosepticum
# Type: cell-based
# test_context: Pectobacterium atrosepticum, 1043; 2 mM/L; read-out: Inhibition zone width (mm), not less
Would you mind telling me the reported zone of inhibition at 2000 µM of each entry?

// molecule CC[N+](CC)(CC)CC(=O)N/N=C1\C(=O)N(Cc2cc(C(C)(C)C)c(O)c(C(C)(C)C)c2)c2c(Br)cc(Cl)cc21 , assay Pectobacterium atrosepticum 1043, zone of inhibition at 2000 µM value: ≥ 9 mm

// molecule CCc1cccc2c1N(Cc1cc(C(C)(C)C)c(O)c(C(C)(C)C)c1)C(=O)/C2=N\NC(=O)C[N+](CC)(CC)CC , assay Pectobacterium atrosepticum 1043, zone of inhibition at 2000 µM value: ≥ 9 mm

// molecule CC[N+](CC)(CC)CC(=O)N/N=C1\C(=O)N(Cc2cc(C(C)(C)C)c(O)c(C(C)(C)C)c2)c2c1ccc(C)c2C , assay Pectobacterium atrosepticum 1043, zone of inhibition at 2000 µM value: ≥ 8 mm

// molecule CC[N+](CC)(CC)CC(=O)N/N=C1\C(=O)N(Cc2cc(C(C)(C)C)c(O)c(C(C)(C)C)c2)c2ccccc21 , assay Pectobacterium atrosepticum 1043, zone of inhibition at 2000 µM value: ≥ 8 mm

// molecule CC[N+](CC)(CC)CC(=O)N/N=C1\C(=O)N(Cc2cc(C(C)(C)C)c(O)c(C(C)(C)C)c2)c2ccc([N+](=O)[O-])cc21 , assay Pectobacterium atrosepticum 1043, zone of inhibition at 2000 µM value: ≥ 10 mm

// molecule CC[N+](CC)(CC)CC(=O)N/N=C1\C(=O)N(Cc2cc(C(C)(C)C)c(O)c(C(C)(C)C)c2)c2cccc(Br)c21 , assay Pectobacterium atrosepticum 1043, zone of inhibition at 2000 µM value: ≥ 15 mm
